Sourced from patent US20050080013A1

Biological target: T1, lecithin:cholesterol acyltransferase (LCAT), purified from human plasma (human, UniProt P04180 25-440)
T1 sequence (looked up): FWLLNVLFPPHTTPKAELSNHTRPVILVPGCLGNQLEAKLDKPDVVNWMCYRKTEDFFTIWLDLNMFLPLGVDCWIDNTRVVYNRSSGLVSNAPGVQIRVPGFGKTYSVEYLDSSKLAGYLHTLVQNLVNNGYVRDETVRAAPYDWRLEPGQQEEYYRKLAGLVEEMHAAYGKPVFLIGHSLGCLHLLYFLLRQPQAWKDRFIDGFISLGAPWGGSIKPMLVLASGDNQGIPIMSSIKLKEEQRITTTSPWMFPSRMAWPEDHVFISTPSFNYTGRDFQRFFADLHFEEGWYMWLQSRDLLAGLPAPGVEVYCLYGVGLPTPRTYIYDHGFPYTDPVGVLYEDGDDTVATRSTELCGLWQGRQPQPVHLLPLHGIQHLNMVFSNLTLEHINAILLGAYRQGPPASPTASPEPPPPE
Experiment: cell-based or functional assay
Non-standard residues stand in square brackets, D forms with d. No end group written: not given here. Aib = CC(C)(N)C(=O)O
Would you please tag the item Y when its ACTIVITY (%) LCAT is 20% or above, and N when it is below?

Please review the following examples before continuing.
{"BINDER": "PLLNELLEALKQKLK [peptide 104]", "CATEGORY": "N"}
{"BINDER": "PVLELFENLLERLLELLNKKLK [peptide 175]", "CATEGORY": "N"}
{"BINDER": "LDDLLQKWAEAFNQLLKK [peptide 237]", "CATEGORY": "N"}

[ask] Could you tell me if the measured ACTIVITY (%) LCAT of PVLDLFRNLLEELLKALEQKLK [peptide 57] reaches 20% or more?
[reply] N

[ask] Assess whether reported ACTIVITY (%) LCAT for LDEFREKLNE[Aib]LEALKQKLK [peptide 82] sits at 20% or higher.
[reply] N

[ask] For this binder, is measured ACTIVITY (%) LCAT 20% or higher? PVLDEFREKLNE[Aib]SEALKQKLK [peptide 112]
[reply] N

[ask] Test whether the binder PVLDEFRELLYE[Aib]LEALKQKLK [peptide 70] records ACTIVITY (%) LCAT of 20% or higher.
[reply] N

[ask] Is ACTIVITY (%) LCAT at least 20%? Consider PVLDLFRELLNELLQKLK [peptide 209]
[reply] Y

[ask] hey, is ACTIVITY (%) LCAT for this one >= 20%? PVLELFENLGERLLDALQKKLK [peptide 151]
[reply] Y

[ask] Item PVLDLFRELLNELLEALKQ [peptide 60] with ACTIVITY (%) LCAT of 20% or above?
[reply] N
